test system: MS2 coat protein; assay: apparent KD of MS2 coat protein; designed switch direction (-1 OFF switch, 1 ON switch): 1; higher = weaker reporter binding; settings: input ligand: FMN 200 uM
The following sequences are shown together with reported apparent KD of MS2 coat protein values.
// return numeric value only (unit: nM, not printed)

**Query** Recorded apparent KD of MS2 coat protein of UUGAAGAAUUAAGGAUAUUGAAUACAUAUGUUUAACAUGAGGAUCACCCAUGUGGGUUGCGGUAUCGAGAAGGUAAAUUACUAG [JL SSNG2 1.49] (Eterna round: R96, puzzle: Same State NG 2) , please.
**Result** 112

**Query** Please give the result for UGGCUCAGAGCAGGAUAUAUGUGGUCACAUGAGGAUCACCCAUGUCUCGAGCUUCGGCUCGAGGCAUAGAAGGGCUCUGAGCCU [SSNG2/5-B3] (Eterna round: R96, puzzle: Same State NG 2) too.
**Result** 704

**Query** Please give the result for GCUCGUAUGAUGACCGACAUGAGGAUCACCCAUGUAUGUUGGUAGGAUAUCUAUAUUAAGGAUAUAGAGAAGGGCCGAACGAGC [SameState NG3 #15] (Eterna round: R96, puzzle: Same State NG 3) too.
**Result** 26.5

* * *

system: MS2 coat protein; test: apparent KD of MS2 coat protein; designed switch direction (-1 OFF switch, 1 ON switch): 1; higher = weaker reporter binding; details: Eterna round: R95; input ligand: microRNA oligo, concentration not stated
Note that class boundaries on apparent KD of MS2 coat protein are low class: < 50 nM; middle class: ≥ 50 nM and < 200 nM; high class: ≥ 200 nM

**Query** Class (by measured apparent KD of MS2 coat protein) for GGAGAACAUGAGGAUCACCCAUGUGGAUGAGCGCUAGGAUAUGCGGGAGGGUGAAGAGAAGCAGAAGGAGUAGAUA [JR_SS1_Sub034] (puzzle: Same State 1)
**Result** middle class

**Query** Please give the result for AACAAUCUAUCUGAGGAUAUCAUUAAAUAAACAUGAGGAUCACCCAUGUGCAGGAAAACUGCAUAUGAGAAGGCAGAUAGAUUGA [salish99_ss2_r3_029] (puzzle: Same State 2) too.
**Result** low class

**Query** Please give the result for AGGUAACAUGAGGAUCACCCAUGUAAGGUGAACGUAGGAUAUCGAAGAGGUAGGGUAGGACGAGAAGGACGAGGAA [JR_SS1_Sub092] (puzzle: Same State 1) too.
**Result** high class

**Query** Please give the result for GAGUAGGAGUUACAGGAUAUAUGGAGGUGGACAUGAGGAUCACCCAUGUGAGAGAUGAGAGGAGGAUAGAAGGGUAAGGGAGUAA [JR_SS2_Sub029] (puzzle: Same State 2) too.
**Result** middle class

**Query** Please give the result for AAAAGUUGCGGGCAGGAUAUGUAUUAAAAUACAUGAGGAUCACCCAUGUGCGGGUAUAACACCCGACAGAAGGGCCAAUCGCGAC [Mat - Same State 2 - Mod of UCT - D95] (puzzle: Same State 2) too.
**Result** middle class

**Query** Please give the result for AAAGCAAUGGUACAGGAUAUGUACGGUCGUACAUGAGGAUCACCCAUGUCGCUGGAAAGGUAGAUACAGAAGGGUGCCCAUGCGU [Riintile] (puzzle: Same State 2) too.
**Result** middle class

**Query** Please give the result for AGUCUACGGUGACGUAGACAGUAGUGCGUACAUGAGGAUCACCCAUGUCAUGUAAGAGUUACUUGUUCGUCUUGAAC [SENSOR #3] (puzzle: Sensor for hsa-mir-208a) too.
**Result** low class

**Query** Please give the result for UGUCCAGCCUGAGCUGGACAAAAGCAUGUACAUGAGGAUCACCCAUGUUCAUGUACAAGCUUUUUGCUCGUCUUAGU [salish99_208a_r3_065] (puzzle: Sensor for hsa-mir-208a) too.
**Result** low class

* * *

test system: K4 kissing-loop RNA reporter; assay: apparent KD of K4 kissing-loop reporter; higher = weaker reporter binding; conditions: Eterna round: R107; input ligand: arginine 13.2 mM;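 further: bound reporter read as fluorescence of individual clusters on recovered sequencing chips by microscopy, with normalized cluster intensities fitted with a binding model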
Label Criterion met when apparent KD of K4 kissing-loop reporter is at or above 700 nM; anything below gets Criterion not met.

POLYMER_SEQUENCE	TARGET_SYSTEM	LABEL
CUGAGCCUGACGCAAGUCAGGCUCUGCGAGCGAGGACCGGUACGGCCGCCACUCGGUGCAGUGAUGUUGCAUGGCCGCAAGGCCG [#2 Exclusion - Tryptophan A Attempt #21 (HarryS)]	K4 kissing-loop RNA reporter	Criterion not met
UUUUAGGUAUCUGAUACCAGAGAAAAUAUAUGUAGUGAUGUUAUAUACAAAAUAAUUAAGCUCCCUUGGCAGCAGUUUUAAUUUU [AstrosExc-TheB#5]	K4 kissing-loop RNA reporter	Criterion met
AAUUUAUAUUUGUUCUUCAAAUGUUCAGAAGGAGCGUGAAUUAUCACAGGUAGGUCGCUGGGCUAGUGAUGUUGGCUAUAUACUA [whbob_Ex_Arginine_A_2t126]	K4 kissing-loop RNA reporter	Criterion not met
CUCGAGUGAUGUUCGAUUAUUUAUACAGAUACCAGUGAAUUUUAACACCCUUGGCAGCUGGUAGUAUCUUUGUAAUUUUAACUAG [JR_ExcTheophyA_Sub003]	K4 kissing-loop RNA reporter	Criterion not met

Let's switch to this sequence now.
**Query** Does the reported apparent KD of K4 kissing-loop reporter for CCAUCGCUAUUCGAUACCAGUCUUUUUUAUUUAUAAAAUCUGCAAAGGAGUGAUGUUCCAGACCCUUGGCAGCGAAUAGUGAUGG [Theophylline B K4 3] fall at or above the 700 nM mark?
**Result** Criterion not met

* * *

system: MS2 coat protein; experiment: apparent KD of MS2 coat protein; designed switch direction (-1 OFF switch, 1 ON switch): 1; higher = weaker reporter binding; conditions: input ligand: microRNA oligo, concentration not stated
OBSERVABLE: apparent KD of MS2 coat protein (nM)
// return numeric value only (unit: nM, not printed)

Would you please look over these solved cases?
POLYMER_SEQUENCE	TARGET_SYSTEM	OBS_VALUE
UGUUGUAUUACAGGAUAUCUAUUAUUUUUGUUUAGAGAAGGGUAUUCACAUGAGGAUCACCCAUGUAUAUACGAGGAAGUUGUG [JMF's solution 24] (Eterna round: R96, puzzle: Same State NG 1)	MS2 coat protein	37.6
AAAGAAAACAUAGGAUAUGUAACAUGAGGAUCACCCAUGUGUAGCCCGUAAGGGAUGACGGAUGGACAGAAGGAUGGUCUCAGG [Default title] (Eterna round: R96, puzzle: Same State NG 2)	MS2 coat protein	155
UUGCUCGUGUGAGGAUAUGCAGCCGUUUCGGCUGCAGAAGGUACUAUAAUACAUGAGGAUCACCCAUGUCUCUGUUGUUUCGUG [salish99_SSNG1_r04_931] (Eterna round: R96, puzzle: Same State NG 1)	MS2 coat protein	21
UGAACCGUCACAGGAUAUCAUGCGAAAAUUGCGUGAGAAGGGUGGAUGUUGUGUUCAAAGUUAUACAUGAGGAUCACCCAUGUU [SameState NG1 #46] (Eterna round: R96, puzzle: Same State NG 1)	MS2 coat protein	45.8
UAGAUUCACGUAGGAUAUCGACCUACAUGAGGAUCACCCAUGUUUUUGAAUAGAUUUUUUUGUUACGAGAAGGACGUUAUGUAU [JR_SSNG2_Sub064] (Eterna round: R96, puzzle: Same State NG 2)	MS2 coat protein	177
UAGCAGUGCGGGUAGGAUAUGUAGGGUGGUACAUGAGGAUCACCCAUGUAUCCACCCUUCGACCGGCAGAAGGGCCUGUCACUGC [Edor] (Eterna round: R96, puzzle: Same State 2)	MS2 coat protein	13.2
UUACUCAUGUAAGGAUAUGCAGCCGAAACGGCUGCAGAAGGUACUAUAAUACAUGAGGAUCACCCAUGUCUUUUUAAUUUUUAC [Mat - Same State NG 1 - JL mod - D70] (Eterna round: R96, puzzle: Same State NG 1)	MS2 coat protein	37
GUUGAGAAAUGAGGAUAUGCAUGGAAGACACAUGAGGAUCACCCAUGUGGGAGGGAAACCAGGAGGUAGAAGGCAUUGGGAAAC [AK SSNG2-V2-24] (Eterna round: R96, puzzle: Same State NG 2)	MS2 coat protein	35.5

**Query** Recorded apparent KD of MS2 coat protein of GUUACAUGAGGAUCACCCAUGUAUGUGUGGGAGUAAGUGUCUUAGGAUAUCUAGUAUUAAAUUUAAGAGAAGGAAGAUUGUUGU [JMF's solution 57] (Eterna round: R96, puzzle: Same State NG 3) , please.
**Result** 78.9

**Query** Please give the result for GUGGUCAGACAUGAGGAUCACCCAUGUGGAAUAAAUAAGGGUUAGGAUAUGCAAUAUAGGAUAUAGCAGAAGGGAUGGUUGGUG (Eterna round: R96, puzzle: Same State NG 3) too.
**Result** 84.9

**Query** Please give the result for AGAGGAGGAGCAGGAUAUUCGACGGAGGACGUGGAAGAAGGGUUCAUGCGAUGACAUGAGGAUCACCCAUGUACCGCGCGUCGA [AK SSNG1-V2-15.1] (Eterna round: R96, puzzle: Same State NG 1) too.
**Result** 106
